measurement target: human CD38 on cells or tissue (human, UniProt P28907 1-300)
protocol notes: cell-based or functional assay
assay metric: ADCC EC50 [nM], LP-1 target cells (nM)

binder	assay metric	recorded result
MOR03100 human IgG1 (antibody, V domains shown, also called LAC 3100; MAb#4) VH: QVQLVESGGGLVQPGGSLRLSCAASGFTFSSNGMSWVRQAPGKGLEWVSNISYLSSSTYYADSVKGRFTISRDNSKNTLYLQMNSLRAEDTAVYYCARFYGYFNYADVWGQGTLVTVSS VL: DIELTQPPSVSVAPGQTARISCSGDNIGHYYASWYQQKPGQAPVLVIYRDNDRPSGIPERFSGSNSGNTATLTISGTQAEDEADYYCQSYDYLHDFVFGGGTKLTVLG	ADCC EC50 [nM], LP-1 target cells	1
MOR03077 human IgG1 (antibody, V domains shown, also called MAb#1) VH: QVQLVQSGAEVKKPGASVKVSCKASGYTFTSYSINWVRQAPGQGLEWMGYIDPNRGNTNYAQKFQGRVTMTRDTSISTAYMELSSLRSEDTAVYYCAREYIYFIHGMLDFWGQGTLVTVSS VL: DIVMTQSPLSLPVTPGEPASISCRSSQSLLFIDGNNYLNWYLQKPGQSPQLLIYLGSNRASGVPDRFSGSGSGTDFTLKISRVEAEDVGVYYCQQYSSKSATFGQGTKVEIKR	ADCC EC50 [nM], LP-1 target cells	0.6
MOR03079 human IgG1 (antibody, V domains shown, also called MAb#2) VH: QVQLVESGGGLVQPGGSLRLSCAASGFTFSNYGMHWVRQAPGKGLEWVSNIRSDGSWTYYADSVKGRFTISRDNSKNTLYLQMNSLRAEDTAVYYCARRYWSKSHASVTDYWGQGTLVTVSS VL: DIQMTQSPSSLSASVGDRVTITCRASQDISAFLNWYQQKPGKAPKLLIYKVSNLQSGVPSRFSGSGSGTDFTLTISSLQPEDFATYYCQQAYSGSITFGQGTKVEIKR	ADCC EC50 [nM], LP-1 target cells	0.09
MOR03080 human IgG1 (antibody, V domains shown, also called MAb#3) VH: QVQLVESGGGLVQPGGSLRLSCAASGFTFSSYGMHWVRQAPGKGLEWVSNIYSDGSNTFYADSVKGRFTISRDNSKNTLYLQMNSLRAEDTAVYYCARNMYRWPFHYFFDYWGQGTLVTVSS VL: DIELTQPPSVSVAPGQTARISCSGDNIGNKYVSWYQQKPGQAPVVVIYGDNNRPSGIPERFSGSNSGNTATLTISGTQAEDEADYYCSSYDSSYFVFGGGTKLTVLG	ADCC EC50 [nM], LP-1 target cells	0.17
